target: T1, recombinant human HER2 extracellular domain protein (human, UniProt P04626 23-652); test: BLI, Protein A capture
T1 construct: range 23-652; Range is printed for the immunogen/panning protein; also called ErbB2; recombinant HER2 protein
measured endpoint: koff (s⁻¹)
Entry rule: numbers only, all in s⁻¹.

Sure, the documented koff for Hu2117HK-Mu09 (Fc fusion, scFv-hIgG1 Fc; not shown: human IgG1 Fc) scFv: EVQLVESGGGLVQPGGSLRLSCAASGFTYSSYGMSWVRQAPGKGLEWVASISGGGSYTKYGDSVKGRFTISRDNSKNTLYLQMNSLRAEDTAVYYCARDYAGFFDVWGQGTLVTVSSGGGGSGGGGSGGGGSDIQMTQSPSSLSASVGDRVTITCRSSQSLVHSNGNTYLHWYQQKPGKAPKLLIYKVSNRFSGVPSRFSGSGSGTDFTLTISSLQPEDFATYFCSQSTHVPYTFGQGTKVEIK is 0.000468
